- study target: Fuc(a1-2)[GalNAc(a1-3)]Gal(b1-4)GlcNAc(b1-3)Gal(b1-4)GlcNAc
- protocol text: glycan array binding signal (z-score within array); higher = stronger binding
- experimental parameters: glycan notation: IUPAC condensed, linker removed
The entries come from a sample that favours the strongest signals as a whole.
I'd appreciate it if you could supply glycan array binding signal (z-score) values for the items below.

What measured glycan array binding signal (z-score) goes with 3FTT (Staphylococcus aureus), Q5HCZ5 (protein) MTEKEKMLAEKWYDANFDQYLINERARAKDICFELNHTRPSATNKRKELIDQLFQTTTDNVSISIPFDTDYGWNVKLGKNVYVNTNCYFMDGGQITIGDNVFIGPNCGFYTATHPLNFHHRNEGFEKAGPIHIGSNTWFGGHVAVLPGVTIGEGSVIGAGSVVTKDIPPHSLAVGNPCKVVRKIDNDLPSETLNDETIK ?
-0.09

Here is the next binder: PLU (Photorhabdus luminiscence) (protein) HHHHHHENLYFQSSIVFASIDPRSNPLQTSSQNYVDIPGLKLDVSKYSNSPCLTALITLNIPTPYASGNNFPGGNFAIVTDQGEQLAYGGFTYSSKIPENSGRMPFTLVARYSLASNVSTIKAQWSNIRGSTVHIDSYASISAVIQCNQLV
11.7

Also Epa3 (Candida glabrata), Q6VBI8_CANGB (protein) MGSSHHHHHHSSGLVPRGSHMNDLGFSLFEKRELSSQNPFGYPIGCSPQDVAIIPGLTMELYSYPIVSGTPPNCYDASYVDPEYPRTGYLKRKMVGKSTGVTGNLNYKYSVEKACMVKYGNLPAGYNYNEPLTVSNFTMILYGYFKAQTTGLHTFFVNADDLLYINFGAGNAFDCCKREDSKTKLGEYVAYDIWHVDSSKNKVSLFLEKDLYYPIRMFFNNIGKDSSLDLSFSVNGATDQISDFSGYLYSVPDQPDTCPAHIGYDTTCR ?
-0.246

And PGP3 (Chlamydia trachomatis), P0CE18 (protein) MGNSGFYLYNTQNCVFADNIKVGQMTEPLKDQQIILGTTSTPVAAKMTASDGISLTVSNNPSTNASITIGLDAEKAYQLILEKLGDQILGGIADTIVDSTVQDILDKITTDPSLGLLKAFNNFPITNKIQCNGLFTPRNIETLLGGTEIGKFTVTPKSSGSMFLVSADIIASRMEGGVVLALVREGDSKPYAISYGYSSGVPNLCSLRTRIINTGLTPTTYSLRVGGLESGVVWVNALSNGNDILGITNTSNVSFLEVIPQTNA ?
0.028

Follow-up item: Epa2 (Candida glabrata) (protein) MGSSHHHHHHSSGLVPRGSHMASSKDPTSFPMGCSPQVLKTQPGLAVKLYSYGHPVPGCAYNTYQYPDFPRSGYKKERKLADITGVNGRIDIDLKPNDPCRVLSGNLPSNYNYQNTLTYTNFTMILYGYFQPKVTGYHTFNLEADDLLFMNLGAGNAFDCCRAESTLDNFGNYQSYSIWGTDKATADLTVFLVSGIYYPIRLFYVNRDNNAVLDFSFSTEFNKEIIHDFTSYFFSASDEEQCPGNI
-0.172
